Each entry below carries its reported Emax.
# tested system: hMT1 (Homo sapiens)
# experimental protocol: cAMP assay (GloSensor), isoproterenol-stimulated cAMP in HEK cells
# Assay type: cell-based
# Design: expressed in transfected cells; host or cells: HEK-T (HEK-293 T) cells, co-transfected with GloSensor DNA
# conditions used: HEK293, Table 2; cell marked Inverse (inverse agonist); read-out: MT1 % Emax (converted)
Provide the reading as a plain figure in %.

Example entries begin here.
> print(dat)
                        structure.notation        tested.system  quantitative.readout
1  Clc1ccc(CNc2cccc(-c3nnc[nH]3)c2)c(Br)c1  hMT1 (Homo sapiens)                    62
2    Clc1cc(Br)ccc1CNc1cccc(-c2nnc[nH]2)c1  hMT1 (Homo sapiens)                    42
3   Cc1nnc(-c2cccc(NCc3ccc(Cl)cc3)c2)[nH]1  hMT1 (Homo sapiens)                    19

Find the recorded Emax belonging to Clc1ccc(CNc2cccc(-c3nnc[nH]3)c2)c(Cl)c1 and report it.
60

====

# tested system: hMT1 (Homo sapiens)
# experimental protocol: cAMP assay (GloSensor), isoproterenol-stimulated cAMP in HEK cells
# Assay type: cell-based
# Parameters: expressed in transfected cells; host or cells: HEK-T (HEK-293 T) cells, co-transfected with GloSensor DNA
# conditions used: agonist; read-out: EC50 at MT1
pEC50: −log10 of the molar value.
assay endpoint: pEC50

Example entries begin here.
> print(dat)
                                   compound        tested.system        result
1  COC(=O)c1cc(Cn2ccn3c(=O)cc(C)nc23)c(C)s1  hMT1 (Homo sapiens)  5.22 to 5.70
2       COc1ccc(CNc2cccc(-c3nnc[nH]3)c2)cc1  hMT1 (Homo sapiens)          5.00
3        COc1cccc2c1CCN(C(=O)c1ccc(F)nc1)C2  hMT1 (Homo sapiens)  5.22 to 5.70
4   COc1ccc(CN(C)C(=O)c2cccc(OC(F)F)c2)cc1O  hMT1 (Homo sapiens)  5.22 to 5.70

Continue with the compound presented below.
Find the recorded pEC50 belonging to COc1ccc(CN(C(=O)C2CC2C)c2ccncc2)cc1 (centres unmarked) and report it.
5.22 to 5.70

====

Each entry below carries its reported Emax.
# tested system: MT2 (Homo sapiens)
# Sequence (P49286 1-362): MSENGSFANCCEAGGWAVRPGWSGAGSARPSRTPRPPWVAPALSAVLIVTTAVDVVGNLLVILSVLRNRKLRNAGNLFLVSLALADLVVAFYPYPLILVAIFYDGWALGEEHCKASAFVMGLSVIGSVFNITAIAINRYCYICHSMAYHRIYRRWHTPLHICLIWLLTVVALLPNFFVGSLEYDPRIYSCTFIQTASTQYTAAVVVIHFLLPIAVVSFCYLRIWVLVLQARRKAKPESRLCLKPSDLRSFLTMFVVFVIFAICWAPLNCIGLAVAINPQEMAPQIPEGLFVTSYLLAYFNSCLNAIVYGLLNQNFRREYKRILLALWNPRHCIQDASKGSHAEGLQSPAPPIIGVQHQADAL
# experimental protocol: cAMP assay (GloSensor), isoproterenol-stimulated cAMP in HEK cells
# Format: cell-based
# Parameters: expressed in transfected cells; host or cells: HEK-T (HEK-293 T) cells, co-transfected with GloSensor DNA
# conditions used: HEK293, Table 1; agonist; normalized to melatonin response; read-out: MT2 % Emax (converted)
Provide the reading as a plain figure in %.

Example entries begin here.
> print(dat)
                                   molecule  assay.endpoint  quantitative.readout
1  COCCN(Cc1ccc2c(c1)OCO2)c1nc(C(F)(F)F)ns1 [ZINC580731466]            Emax                    98
2  COC(=O)c1sc(N(C)Cc2ccc(Cl)nc2)nc1Cl [ZINC92585174]            Emax                    74
3  Cc1cc(=O)n2ccn(CCc3ccc4c(c3)OC(F)(F)O4)c2n1 [ZINC664088238]            Emax                    75
4  Cn1c(=O)oc2c(NCc3ccc(-c4cc[nH]n4)o3)cccc21 [ZINC433313647]            Emax                    96
5  COc1ccc2c(c1)N(Cc1ccc(C#N)c(OC)c1)CCO2 [ZINC442850041]            Emax                    97
6  CCc1nc(SCc2cccc(C(=O)OC)c2)nc(O)c1C [ZINC576887661]            Emax                    68

Short answer please: Emax, MT2 (Homo sapiens), entry CN(Cc1ccc2c(c1)OCO2)c1ccnc(Cl)c1 [ZINC301472854]
88

Same question, COC(=O)c1ccc(I)c(Oc2ccnc(C)n2)c1 [ZINC432154404] this time
74

====

Each entry below carries its reported MT1 pEC50.
# tested system: hMT1 (Homo sapiens)
# experimental protocol: cAMP assay (GloSensor), isoproterenol-stimulated cAMP in HEK cells
# Assay type: cell-based
# Set-up: expressed in transfected cells; host or cells: HEK-T (HEK-293 T) cells, co-transfected with GloSensor DNA
# conditions used: Table 2; agonist
Just the number.

> print(dat)
                                   compound  quantitative.readout
1  COc1ccc2c(c1)N(Cc1ccn(C)c(=O)c1)CCO2 [ZINC608506688]                  9.78
2  COc1ccc(CN(C(=O)OC2CCC2)c2ccncc2)cc1 [ZINC497291360]                  7.05
3   COc1ccc(CNc2cccnc2C)cc1C [ZINC91496083]                  4.65

Continue with the compound presented below.
Find the recorded MT1 pEC50 belonging to COc1ccc(CNc2cccc(-n3nccn3)c2)cc1 [ZINC864032792] and report it.
7.49

====

# tested system: hMT1 (Homo sapiens, UniProt P48039)
# Sequence (P48039 whole entry): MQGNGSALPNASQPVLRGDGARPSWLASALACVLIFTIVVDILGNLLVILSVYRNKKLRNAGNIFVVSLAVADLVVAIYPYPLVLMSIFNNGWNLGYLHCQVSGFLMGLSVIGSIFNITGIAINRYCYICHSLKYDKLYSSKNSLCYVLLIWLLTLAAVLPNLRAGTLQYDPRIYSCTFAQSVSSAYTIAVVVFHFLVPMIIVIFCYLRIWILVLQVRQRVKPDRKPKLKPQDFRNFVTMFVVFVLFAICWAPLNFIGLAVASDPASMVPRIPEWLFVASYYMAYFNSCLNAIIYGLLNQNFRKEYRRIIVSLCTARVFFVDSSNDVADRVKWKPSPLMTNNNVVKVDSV
# experimental protocol: cAMP assay (GloSensor), isoproterenol-stimulated cAMP in HEK cells
# Type: cell-based
# Parameters: expressed in transfected cells; host or cells: HEK-T (HEK-293 T) cells, co-transfected with GloSensor DNA
# conditions used: Table 1; agonist
# Description: HEK-293 T cells were maintained with complete Dulbecco's modified Eagle's medium (DMEM), which is composed of 10% fetal bovine serum (FBS), 2 mM L-glutamine, 100 units/ml penicillin G, 100 μg/ml streptomycin at 37° C. in the presence of 5% CO2 MT1 and MT2 receptors were tested using Promega's spilt luciferase based GboSensor cAMP biosensor technology. […] Then, plates were counted using SpectraMax luminescence reader (Molecular Device). Data were analyzed using GraphPad Prism 6.0.
assay endpoint: MT1 pEC50
Just the number.

> print(dat)
                                   compound  quantitative.readout
1  COc1ccc(CNc2cccc(-c3nnc[nH]3)c2)cc1 [ZINC157665999]                  4.89
2  COc1ccc(CN(C)C(=O)c2cccc(OC(F)F)c2)cc1O [ZINC353044322]                  5.48
3  COc1ccc2c(c1)N(Cc1ccc(C#N)c(OC)c1)CCO2 [ZINC442850041]                  7.91
4  CN(Cc1ccc2c(c1)OCO2)c1ccnc(Cl)c1 [ZINC301472854]                  6.03

Continue with the compound presented below.
Find the recorded MT1 pEC50 belonging to Cn1c(=O)oc2c(NCc3ccc(-c4cc[nH]n4)o3)cccc21 [ZINC433313647] and report it.
6.81

====

Each entry below carries its reported MT2 pEC50.
# tested system: MT2 (Homo sapiens, UniProt P49286)
# Sequence (P49286 1-362): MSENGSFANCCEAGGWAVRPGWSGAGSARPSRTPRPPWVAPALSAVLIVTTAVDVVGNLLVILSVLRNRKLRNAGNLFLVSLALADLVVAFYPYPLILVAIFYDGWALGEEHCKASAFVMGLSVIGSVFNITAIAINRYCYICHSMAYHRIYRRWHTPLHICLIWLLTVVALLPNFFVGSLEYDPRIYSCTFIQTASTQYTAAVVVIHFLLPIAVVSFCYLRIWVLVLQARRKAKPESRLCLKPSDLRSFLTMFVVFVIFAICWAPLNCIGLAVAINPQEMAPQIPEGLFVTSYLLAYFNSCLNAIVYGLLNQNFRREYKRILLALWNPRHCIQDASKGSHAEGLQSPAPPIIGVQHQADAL
# experimental protocol: cAMP assay (GloSensor), isoproterenol-stimulated cAMP in HEK cells
# Assay type: cell-based
# Set-up: expressed in transfected cells; host or cells: HEK-T (HEK-293 T) cells, co-transfected with GloSensor DNA
# conditions used: Table 2; cell marked Inverse (inverse agonist)
# Experimental: MT1 and MT2 receptors were tested using Promega's spilt luciferase based GboSensor cAMP biosensor technology. […] To measure agonist activity of MT1 or MT2 receptor, 10 μl of test compound solution at 3× final concentration was added for 15 minutes followed by addition of 10 μl of luciferin/isoproterenol mixture (at a final concentration of 4 mM and 200 nM respectively) for another 15 mins for luminescence quantification. […] Data were analyzed using GraphPad Prism 6.0.
Just the number.

Short answer please: MT2 pEC50, MT2 (Homo sapiens, UniProt P49286), entry Clc1ccc(CNc2cccc(-c3nnc[nH]3)c2)c(Cl)c1 [ZINC157676497]
6.01

Same question, COc1ccc(CNc2cccc(-n3nccn3)c2)cc1 [ZINC864032792] this time
6.66

Same question, Cc1nnc(-c2cccc(NCc3ccc(Cl)cc3)c2)[nH]1 [ZINC37781620] this time
6.20

Same question, Clc1cc(Br)ccc1CNc1cccc(-c2nnc[nH]2)c1 [ZINC516666069] this time
5.58
